Molecular target: SIRT1 (Homo sapiens)
Sequence (Q96EB6 1-747): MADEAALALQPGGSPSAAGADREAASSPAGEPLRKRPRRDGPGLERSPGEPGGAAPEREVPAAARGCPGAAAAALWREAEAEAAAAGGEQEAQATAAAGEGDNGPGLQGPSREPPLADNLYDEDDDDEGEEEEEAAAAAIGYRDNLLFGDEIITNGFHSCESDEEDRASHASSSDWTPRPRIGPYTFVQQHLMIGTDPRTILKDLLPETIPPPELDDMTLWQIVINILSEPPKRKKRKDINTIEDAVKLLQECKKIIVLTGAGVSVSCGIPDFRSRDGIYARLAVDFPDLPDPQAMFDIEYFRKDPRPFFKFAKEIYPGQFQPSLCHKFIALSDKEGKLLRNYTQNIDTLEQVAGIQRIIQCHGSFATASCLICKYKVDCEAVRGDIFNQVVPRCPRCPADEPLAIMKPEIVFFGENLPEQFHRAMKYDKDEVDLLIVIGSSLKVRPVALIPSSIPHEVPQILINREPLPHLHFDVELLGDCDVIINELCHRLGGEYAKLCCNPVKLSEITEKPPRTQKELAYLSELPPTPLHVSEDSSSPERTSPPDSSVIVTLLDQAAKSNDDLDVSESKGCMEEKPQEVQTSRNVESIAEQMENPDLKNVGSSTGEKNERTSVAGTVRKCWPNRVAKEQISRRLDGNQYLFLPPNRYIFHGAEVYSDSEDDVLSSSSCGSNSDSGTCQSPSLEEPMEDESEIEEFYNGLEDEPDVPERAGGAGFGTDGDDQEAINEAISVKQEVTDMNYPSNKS
Experiment: Trp mass spectrometry assay (SIRT1 activation)
Assay type: biochemical
Details: concentration of test compound that results in 150% activation of SIRT1; Trp peptide substrate
observable: Tryp AVG EC1.5 (μM)

As a guide, the following entries are already answered.
O=C(Nc1ccccn1)N1c2nc(-c3cccnc3)ccc2N2CCC[C@H]1C2; B (EC1.5 1-25 μM)
N#Cc1cncc(-c2ccc3c(n2)N(C(=O)Nc2ccncn2)[C@H]2CCCN3C2)c1; B (EC1.5 1-25 μM)
CCCn1cc(-c2ccc3c(n2)N(C(=O)Nc2cccnc2)[C@H]2CCN3C2)cn1; B (EC1.5 1-25 μM)
COc1ncc(-c2ccc3c(n2)N(C(=O)Nc2ccccn2)[C@H]2CCN3C2)c(OC)n1; B (EC1.5 1-25 μM)
Cc1nc(-c2cccc(NC(=O)N3c4nc(-c5cccc(C(F)(F)F)c5)ccc4N4CC[C@H]3C4)c2)cs1; A (EC1.5<1 μM)

Here is the next item to consider.
Query: Name the recorded Tryp AVG EC1.5 (μM) of Cc1nc(NC(=O)N2c3nc(-c4ccccc4C#N)ccc3N3CCC[C@H]2C3)sc1C , assay system SIRT1 (Homo sapiens).
Result: B (EC1.5 1-25 μM)

Hello, the source for this data is patent US9765075B2, in case you need it.
